The origin of these recorded values is patent US20110166062A1.

Biological target: T1, GIP receptor (UniProt P48546 22-466)
T1 sequence (looked up): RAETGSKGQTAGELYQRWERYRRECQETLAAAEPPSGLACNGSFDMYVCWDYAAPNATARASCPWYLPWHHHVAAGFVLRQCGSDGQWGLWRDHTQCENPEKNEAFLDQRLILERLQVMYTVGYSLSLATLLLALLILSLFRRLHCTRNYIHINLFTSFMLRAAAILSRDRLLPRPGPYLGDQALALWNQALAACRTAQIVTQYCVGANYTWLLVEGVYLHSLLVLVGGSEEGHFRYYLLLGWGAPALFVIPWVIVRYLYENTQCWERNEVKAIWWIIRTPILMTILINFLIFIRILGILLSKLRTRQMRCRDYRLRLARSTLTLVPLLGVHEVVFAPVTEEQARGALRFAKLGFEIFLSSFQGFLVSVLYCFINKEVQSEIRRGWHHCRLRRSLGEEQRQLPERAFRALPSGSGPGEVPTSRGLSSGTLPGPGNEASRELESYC
Assay: cell-based or functional assay
Where no end group is shown, it is not given here. [ ]: non-standard residue; d: D form. C18 fatty acyl = 18 carbon fatty acyl group covalently attached to Lys; Aib = CC(C)(N)C(=O)O
readout: EC50 (nM)

> print(dat)
                                     binder  readout  unitlabel  recordednumber
1  Y[Aib]EGTFTSDYSIYLDKQAA[Aib]EFVNWLLAGGPSSGAPPPSK-NH2 [mt-263]     EC50         nM          0.0031
2  Y[Aib]EGTFTSDYSIYLDKQAA[Aib]EFVCWLLAGGPSSGAPPPSK(C18 fatty acyl)-NH2 [mt-307]     EC50         nM          0.0127
3  YXQGTFTSDYSIYLDXQAAXEFVNWLLAGGPSSGAPPPSC (Orn at position 16; AIB at position 20) [mt-275]     EC50         nM          0.0124
